# Experimental System: Dihydrofolate reductase (Rattus norvegicus) (UniProt Q920D2)
# Experiment: Tested for inhibition of dihydrofolate reductase enzyme purified from rat liver at the highest concentration tested
Entry flag: TRUE if inhibition reaches 30%; FALSE if it does not.

Would you please look over these solved cases?
In [3]: df
Out[3]:
                                   molecule  qualitative_label
0        COc1cc(Cc2cnc(N)c(Br)c2N)cc(OC)c1O              FALSE
1      CC(C)c1cc(Cc2cnc(N)cc2N)cc(C(C)C)c1O               TRUE
2            COc1cc(Cc2cnc(N)cc2N)cc(OC)c1O               TRUE
3            COc1cc(Cc2ccc(N)nc2N)cc(OC)c1O               TRUE
4  CCc1cc(Cc2cc(Cc3cc(CC)c(O)c(CC)c3)c(N)nc2N)cc(CC)c1O              FALSE
5            CCc1cc(Cc2ccc(N)nc2N)cc(CC)c1O              FALSE
6  CC(C)c1cc(Cc2cnc(N)c(Br)c2N)cc(C(C)C)c1O              FALSE
7  COc1cc(CC2C=CC(N)=NC2=O)cc(OC)c1O (centres undefined)              FALSE

# bool: inhibition of COc1cc(Cc2cnc(N)c(F)c2N)cc(OC)c1O >= 30%
TRUE

* * *

Parameter 'readout' = IC50; parameter 'system' = Dihydrofolate reductase (Rattus norvegicus).
Sequence (Q920D2 whole entry): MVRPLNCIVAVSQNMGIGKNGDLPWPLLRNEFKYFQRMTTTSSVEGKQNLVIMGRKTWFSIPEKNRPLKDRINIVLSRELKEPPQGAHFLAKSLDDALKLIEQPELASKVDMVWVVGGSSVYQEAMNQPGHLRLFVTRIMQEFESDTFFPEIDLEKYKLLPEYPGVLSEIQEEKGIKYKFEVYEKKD

>>> print(df.to_string())
                      item_smiles  result
0  CCc1cc(Cc2ccc(N)nc2N)cc(CC)c1O  ~40 mM

Parameter requested: IC50. Apply to each item below.
1. COc1cc(Cc2c(N)ccnc2N)cc(OC)c1O
2. CCc1cc(Cc2cc(Cc3cc(CC)c(O)c(CC)c3)c(N)nc2N)cc(CC)c1O
3. CC(C)c1cc(Cc2cnc(N)c(Br)c2N)cc(C(C)C)c1O

["41 mM", "~1 mM", "~23.7 mM"]

* * *

# Experiment: Dissociation constant (pKa)
# Assay type: physicochemical
# Measurement Context: read-out: Dissociation constant
Reported Endpoint: pKa

Here is how some compounds turned out for pKa.
                                   compound  result
0            COc1cc(CNc2cccc(N)n2)cc(OC)c1O    6.51
1           COc1cc(Cc2cnc(N)cc2N)cc(OC)c1OC    9.03
2  CCc1cc(Cc2cc(Cc3cc(CC)c(O)c(CC)c3)c(N)nc2N)cc(CC)c1O    6.63
3  COc1cc(Cc2cc(Cc3cc(OC)c(O)c(OC)c3)c(N)nc2N)cc(OC)c1O    6.69
4          COc1cc(CNc2ccnc(N)c2Br)cc(OC)c1O    7.33

Next, consider the following compound.
For reference, reported pKa for Nc1ccncc1 [DALFAMPRIDINE] stands at 9.25
